# testedSystem: T1, human 2Ig-B7-H3 extracellular domain (human, UniProt Q5ZPR3 29-466)
# T1 chain: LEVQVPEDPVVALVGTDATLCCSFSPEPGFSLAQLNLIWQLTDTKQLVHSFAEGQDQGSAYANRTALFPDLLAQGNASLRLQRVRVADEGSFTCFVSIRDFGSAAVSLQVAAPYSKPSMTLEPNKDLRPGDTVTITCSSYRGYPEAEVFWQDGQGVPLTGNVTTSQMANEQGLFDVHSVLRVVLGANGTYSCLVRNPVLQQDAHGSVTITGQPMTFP
# testDescription: biolayer interferometry (Octet), antibody captured on the probe, extracellular domain in solution
testReadout: Kd

| binder | testReadout | observedMeasurement |
| --- | --- | --- |
| MIL33B-H3-hIgG1 (antibody, V domains shown, also called hMIL33B-H3; humanized MIL33B-H3) VH: QVQLVQSGAEVKKPGASVKVSCKASGYTFTSYVMHWVRQAPGQRLEWMGYINSYSDGTKYNEKFKGRVTITRDTSASTAYMELSSLRSEDTAVYYCARWGGLGNGAMDYWGQGTLVTVSS VL: EIVLTQSPATLSLSPGERATLSCSVSSSVNYMHWYQQKPGQAPRRLIYDTSKLASGIPARFSGSGSGTDYTLTISSLEPEDFAVYYCQQWTSNPLTFGQGTKLEIK | Kd | 43.5 nM |
| MIL33B-H2-hIgG1 (antibody, V domains shown, also called AHF15938; AHF 15938) VH: QVQLVQSGAEVKKPGASVKVSCKASGYTFTSYVMHWVRQAPGQRLEWMGYINSYSDGTKYNEKFKGRATITRDTSASTAYMELSSLRSEDTAVYYCARWGGLGNGAMDYWGQGTLVTVSS VL: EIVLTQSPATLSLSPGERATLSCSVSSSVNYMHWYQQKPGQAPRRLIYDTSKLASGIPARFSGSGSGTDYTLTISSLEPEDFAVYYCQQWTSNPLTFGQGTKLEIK | Kd | 14 nM |
| MIL33B chimeric antibody (full-length IgG) (antibody, V domains shown, also called Chimeric VH + VL; MIL33B-chimera) VH: EVQLQQSGPELVKPGASVKMSCKASGYTFTSYVMHWVRQSPGQGLEGIGYINSYSDGTKYNEKFKGKATLTSDKSSSTAYMELSGLTSEDSAVYYCARWGGLGNGAMDYWGQGTSVTVSS VL: QIVLTQSPAIMSASPGEKVTMTCSVSSSVNYMHWYQQKSGTSPKRWIYDTSKLASGVPARFSASGSGTSYSLTISSMEAEDAATYYCQQWTSNPLTFGAGTKLELKR | Kd | 13.2 nM |
